Each entry below carries its recorded pKd.
targetOrSystem: T1, Ioc4 PWWP domain (Saccharomyces cerevisiae, UniProt Q04213 1-178)
T1 sequence: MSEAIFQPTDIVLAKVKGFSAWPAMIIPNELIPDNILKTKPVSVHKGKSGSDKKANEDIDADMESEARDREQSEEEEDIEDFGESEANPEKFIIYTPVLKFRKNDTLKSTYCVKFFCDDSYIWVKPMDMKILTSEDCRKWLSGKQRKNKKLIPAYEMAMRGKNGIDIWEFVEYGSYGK
procedureText: EMSA; EMSA; 15 fmol NCP (30 fmol unmodified NCP) per reaction; 5% native PAGE (37.5:1) in 0.4x TBE, 2% glycerol; binding buffer, pH and temperature not given (as in cited work)
recordedConditions: protein: recombinant; tags: N-terminal 6xHis; label: Cy5 on sense strand; blunt
pKd: −log10 of the molar value.

{"binder": "dsRNA 30 bp (AT rich) (dsRNA) RNA 1: GGCAAGGUCGCUGUUCAAUACAUGCACAGG RNA 2: CCUGUGCAUGUAUUGAACAGCGACCUUGCC", "pKd": 5.74}
{"binder": "dsDNA 30 bp (601-derived EMSA probe) (dsDNA) DNA 1: GGCAAGGTCGCTGTTCAATACATGCACAGG DNA 2: CCTGTGCATGTATTGAACAGCGACCTTGCC", "pKd": 6.09}
